B1: MIA2 (parent)
chain: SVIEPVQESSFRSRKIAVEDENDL

Variants of: B1
Assay: protein stability index of a GFP-peptide fusion (GPS, HEK-293T) (PSI 1-6); higher = more stable;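 also: lentivirally expressed fusions sorted by FACS into six bins by GFP to DsRed ratio, PSI derived from sequencing read proportions per bin multiplied by bin number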
Measurement Conditions: c terminus: a fixed tail appended
Recorded Metric: protein stability index
Hey, just send me the number, nothing else.

Mutations | protein stability index
R14S | 5.13
V2W | 5.14
E8Q | 5.1
S10W | 4.72
R14F | 4.39

Request: Provide only the value of recorded protein stability index for L24T
Result: 5.57

Request: Identify measured protein stability index associated with R14P
Result: 5.4
